Measured Target: West Nile virus strain USA99b (strain 385-99), whole virus (West Nile virus strain 385-99 (USA99b))
Protocol Details: cell-based or functional assay
Reported values of PRNT50 for individual entries

Binder: CR4374 (antibody, V domains shown) VH: QITLKESGPTLVKPTQTLTLTCTFSGFSLSTSGVGVGWIRQPPGKALEWLAVIYWNDDKLYRPSLKSRLTITKDTSKNQVVLTMTKMDPVDTATYYCAHRHRYYDISGYYRLFSDAFDIWGQGTMVTVSS VL: QSVLTQPPSVSGAPGQRVTISCTGSSSNIGAGYDVHWYQQLPGTAPKLLIYGNSNRPSGVPDRFSGSKSGTSASLAITGLQAEDEADYYCQSYDSSLSGSVFGGGTKLTVLG
PRNT50: 0.18 µg/mL
--
Binder: CR5080 (antibody, V domains shown) VH: QITLKESGPTLVKPTQTLTLTCTFSGFSLSTSGVGVGWIRQPPGKALEWLAVIYWNDDKLYRPSLKSRLTITKDTSKNQVVLTMTKMDPVDTATYYCAHRHRYYDISGYYRLFSDAFDIWGQGTMVTVSS VL: QSVLTQPPSVSGAPGQRVTISCTGSSSNIGAGYDVHWYQQLPGTAPKLLIYGNSNRPSGVPDRFSGSKSGTSASLAITGLQAEDEADYYCQSYDSSLSGWAFGGGTKLTVLG
PRNT50: 0.016 µg/mL
--
Binder: CR5085 (antibody, V domains shown) VH: QITLKESGPTLVKPTQTLTLTCTFSGFSLSTSGVGVGWIRQPPGKALEWLAVIYWNDDKLYRPSLKSRLTITKDTSKNQVVLTMTKMDPVDTATYYCAHRHRYYDISGYYRLFSDAFDIWGQGTMVTVSS VL: QSVVTQPPSVSGAPGQRVTISCTGSSSNIGAGYDVHWYQQLPGTAPKLLIYGNSNRPSGVPDRFSGSKSGTSASLAITGLQAEDETDYYCQSYDSSLNGWVFGGGTKLTVLG
PRNT50: 0.015 µg/mL
--
Binder: CR5074 (antibody, V domains shown) VH: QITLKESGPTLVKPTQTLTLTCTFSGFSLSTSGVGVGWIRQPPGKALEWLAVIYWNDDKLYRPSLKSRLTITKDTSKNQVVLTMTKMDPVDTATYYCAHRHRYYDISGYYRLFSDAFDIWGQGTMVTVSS VL: QSVLTQPPSVSGAPGQRVTISCTGSSSNIGTGYDVHWYQQLPGTAPKLLIYADTNRPSGVPDRFSGSKSGTSASLAITGVQAEDEADYYCQSYDTSLTGWVFGGGTKVTVLG
PRNT50: 0.013 µg/mL
--
Binder: CR5088 (antibody, V domains shown) VH: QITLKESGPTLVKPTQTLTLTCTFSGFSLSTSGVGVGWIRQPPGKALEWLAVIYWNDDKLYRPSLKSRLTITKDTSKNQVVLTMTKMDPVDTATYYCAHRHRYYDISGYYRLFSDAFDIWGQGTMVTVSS VL: QSVVTQPPSVSGAPGQRITISCTGSSSNIGAGYDVHWYQQLPGTAPKFLIYGNSNRPSGVPDRFSGSKSGTSASLAITGLQAEDEADYYCQSYDSSLSGWVFGGGTKLTVLG
PRNT50: 0.017 µg/mL
--
Binder: CR4361 (antibody, V domains shown) VH: EVQLVQSGAEVKKPGESLKISCKASGFSFSTYWIGWVRQMPGKGLEWMGIIYPADSDTRYSPSFQGQVTISADKSISTAYLQWSSLKASDTAMYYCARLRGPYYDFWNGYRETHDAFNVWGQGTMVTVSS VL: DVVMTQSPDSLAVSLGERATINCKSSQNILDNSDNKNFLAWYQQKPGQPPKLLIYWASARESGVPDRFSGSGSGTDFTLTISSLQAEDVALYYCQQYYNTPITFGQGTRLEIKR
PRNT50: 2.03 µg/mL
--
Binder: CR4353 (antibody, V domains shown) VH: QVQLVESGGGVVQPGRSLRLSCAASGFTFSNYAMHWVRQAPGKGLEWVAVISYDGGNKYYADSVKGRFTMSRDNSKNTLYLQMNSLRAEDTAVYYCARDFWSGYSMVDSYYYYMDVWGQGTTVTVSS VL: ETTLTQSPGTLSLSPGERATLSCRASQSVSNTFLAWYQQKPGQAPRLLIYGASSRATGIPDRFSGSGSGTDFTLTISRLEPEDFAAYYCQQYGSSLTFGPGTKVDIKR
PRNT50: 0.026 µg/mL
